Molecular target: KRAS G13D (Homo sapiens, UniProt P01116+P62937, G13D)
Sequence (P01116 1-169 isoform P01116-2 G13D limits assumed): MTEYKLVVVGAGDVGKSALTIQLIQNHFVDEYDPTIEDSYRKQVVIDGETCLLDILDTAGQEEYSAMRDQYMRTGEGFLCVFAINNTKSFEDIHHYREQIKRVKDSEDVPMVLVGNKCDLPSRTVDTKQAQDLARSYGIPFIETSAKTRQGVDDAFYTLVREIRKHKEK
Sequence (P62937 whole entry): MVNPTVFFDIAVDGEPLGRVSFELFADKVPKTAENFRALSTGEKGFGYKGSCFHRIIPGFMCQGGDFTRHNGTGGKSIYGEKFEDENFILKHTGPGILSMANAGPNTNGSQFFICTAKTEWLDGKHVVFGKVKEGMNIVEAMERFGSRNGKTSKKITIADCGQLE
Assay: Disruption of BRAF RBD interaction with Ras (FRET / MOA assay, with Cyclophilin A)
Format: biochemical
Conditions: KRAS G13D; read-out: KRAS G13D FRET data IC50
Description: This protocol may also be executed substituting other Ras proteins or nucleotides. The purpose of this biochemical assay was to measure the ability of test compounds to facilitate ternary complex formation between a nucleotide-loaded K-Ras isoform and Cyclophilin A; the resulting ternary complex disrupts binding to a BRAF^RBD construct, inhibiting K-Ras signaling through a RAF effector. Data is reported as IC50 values. […]
pIC50: −log10 of the molar value.
pIC50 values, listed per item

// below: answered compounds
{"COMPOUND": "CCn1c(-c2cccnc2[C@H](C)OC)c2c3cc(ccc31)-c1cc(O)cc(c1)C[C@H](NC(=O)[C@H](C(C)C)N(C)C(=O)C1NCCC1C(C)C)C(=O)N1CCC[C@H](N1)C(=O)OCC(C)(C)C2 (some centres unmarked) [Example A227]", "pIC50": "7.00 to 8.00"}
{"COMPOUND": "C=CC(=O)N1CC[C@H](C(=O)N(C)[C@H](C(=O)N[C@H]2CCC(=O)N(C)Cc3ccc4c(c3)c(c(-c3cccnc3[C@H](C)OC)n4CC)CC(C)(C)COC(=O)[C@@H]3CCCN(N3)C2=O)C(C)C)C1 [Example A500]", "pIC50": "< 5.00"}
{"COMPOUND": "CCn1c(-c2cccnc2[C@H](C)OC)c2c3cc(ccc31)-c1cc(O)cc(c1)C[C@H](NC(=O)[C@H](C(C)C)N(C)C(=O)C1(C#N)CC1)C(=O)N1CCC[C@H](N1)C(=O)OCC(C)(C)C2 (racemic) [Example A159]", "pIC50": "7.00 to 8.00"}
{"COMPOUND": "CCn1c(-c2cc(N3CCN(C)CC3)cnc2[C@H](C)OC)c2c3cc(ccc31)-c1cccc(c1)C[C@H](NC(=O)[C@H](C(C)C)N(C)C(=O)[C@@H]1OCC[C@@H]1c1ccccc1)C(=O)N1CCC[C@H](N1)C(=O)OCC(C)(C)C2 (atropisomer, axis not shown) [Example A562]", "pIC50": "6.00 to 7.00"}
{"COMPOUND": "CCn1c(-c2cccnc2[C@H](C)OC)c2c3cc(ccc31)-c1csc(n1)C[C@H](NC(=O)[C@H](C(C)C)N(C)C(=O)N1CC(N(C)S(C)(=O)=O)C1)C(=O)N1CCC[C@H](N1)C(=O)OCC(C)(C)C2 (atropisomer, axis not shown) [Example A550]", "pIC50": "6.00 to 7.00"}

// assay KRAS G13D (Homo sapiens, UniProt P01116+P62937, G13D), entry CCn1c(-c2cccnc2[C@H](C)OC)c2c3cc(ccc31)-c1cc(O)cc(c1)C[C@H](NS(=O)(=O)CC1CCC3(CNC3)C1)C(=O)N1CCC[C@H](N1)C(=O)OCC(C)(C)C2 (mixture of isomers) [Example A188] , pIC50 value = < 5.00

// assay KRAS G13D (Homo sapiens, UniProt P01116+P62937, G13D), entry CCn1c(-c2cccnc2[C@H](C)OC)c2c3cc(ccc31)-c1csc(n1)C[C@H](NC(=O)[C@H](C(C)C)N(C)C(=O)N1CC[C@H]1C(=O)NC)C(=O)N1CC(C)C[C@H](N1)C(=O)OCC(C)(C)C2 (some centres unmarked) [Example A282] , pIC50 value = 5.00 to 6.00

// assay KRAS G13D (Homo sapiens, UniProt P01116+P62937, G13D), entry CCn1c(-c2cnccc2COC)c2c3cc(ccc31)-c1cc(O)cc(c1)C[C@H](NC(=O)C1CCCC1C(F)F)C(=O)N1CCC[C@H](N1)C(=O)OCC(C)(C)C2 (some centres unmarked) [Example A261] , pIC50 value = 5.00 to 6.00

// assay KRAS G13D (Homo sapiens, UniProt P01116+P62937, G13D), entry CCn1c(-c2cccnc2[C@H](C)OC)c2c3cc(ccc31)-c1cc(O)cc(c1)C[C@H](NC(=O)[C@H](C(C)C)N(C)C(=O)C1CC13CCNC3)C(=O)N1CCC[C@H](N1)C(=O)OCC(C)(C)C2 (some centres unmarked) [Example A148] , pIC50 value = 7.00 to 8.00

// assay KRAS G13D (Homo sapiens, UniProt P01116+P62937, G13D), entry CCn1c(-c2cccnc2[C@H](C)OC)c2c3cc(ccc31)-c1csc(n1)C[C@H](NC(=O)[C@H](C(C)C)N(C)C(=O)N1CCC13CCOCC3)C(=O)N1CCC[C@H](N1)C(=O)OCC(C)(C)C2 (atropisomer, axis not shown) [Example A601] , pIC50 value = 6.00 to 7.00

// assay KRAS G13D (Homo sapiens, UniProt P01116+P62937, G13D), entry C=CC(=O)N1CC(OC[C@H](C(=O)N[C@H]2Cc3cccc(c3)-c3ccc4c(c3)c(c(-c3cccnc3[C@H](C)OC)n4CC)CC(C)(C)COC(=O)[C@@H]3CCCN(N3)C2=O)C(C)C)C1 (racemic) [Example A483] , pIC50 value = < 5.00

// assay KRAS G13D (Homo sapiens, UniProt P01116+P62937, G13D), entry CCn1c(-c2cccnc2[C@H](C)OC)c2c3cc(ccc31)-c1csc(n1)C[C@H](NC(=O)[C@H](C(C)C)N(C)C(=O)N1CCN(C)C3(CC3)C1)C(=O)N1CCC[C@H](N1)C(=O)OCC(C)(C)C2 [Example A311] , pIC50 value = 6.00 to 7.00

---

Target: KRAS G13D (Homo sapiens, UniProt P01116+P62937, G13D)
Test: Disruption of BRAF RBD interaction with Ras (FRET / MOA assay, with Cyclophilin A)
Assay type: biochemical
Settings: KRAS G13D; read-out: KRAS G13D FRET data IC50
IC50 values, listed per item

// below: answered compounds
{"COMPOUND": "CC#C[S+]([O-])N1CC[C@H](C(=O)N(C)[C@H](C(=O)N[C@H]2Cc3cccc(c3)-c3ccc4c(c3)c(c(-c3cccnc3[C@H](C)OC)n4CC)CC(C)(C)COC(=O)[C@@H]3CCCN(N3)C2=O)C2CCCC2)C1 (some centres unmarked)", "RESULT": "> 10000 nM"}
{"COMPOUND": "CCn1c(-c2cccnc2[C@H](C)OC)c2c3cc(ccc31)-c1csc(n1)C[C@H](NC(=O)[C@H](C(C)C)N(C)C(=O)N1CCOCC1)C(=O)N1CCC[C@H](N1)C(=O)OCC(C)(C)C2 (atropisomer, axis not shown)", "RESULT": "100 to 1000 nM"}
{"COMPOUND": "CCn1c(-c2cccnc2[C@H](C)OC)c2c3cc(ccc31)-c1cc(O)cc(c1)C[C@H](NC(=O)[C@H](C(C)C)N(C)C(=O)Cc1cc[nH]n1)C(=O)N1CCC[C@H](N1)C(=O)OCC(C)(C)C2", "RESULT": "100 to 1000 nM"}
{"COMPOUND": "CCn1c(-c2cccnc2[C@H](C)OC)c2c3cc(ccc31)-c1csc(n1)C[C@H](NC(=O)C1CCC1)C(=O)N1CCC[C@H](N1)C(=O)OCC(C)(C)C2", "RESULT": "100 to 1000 nM"}

Proceeding to the next compound to report its IC50.
Noted for CCn1c(-c2cccnc2COC)c2c3cc(ccc31)-c1cc(O)cc(c1)C[C@H](NC(=O)[C@H](C(C)C)N(C)C(=O)[C@H]1CCN(C(C)=O)C1)C(=O)N1CCC[C@H](N1)C(=O)OCC(C)(C)C2 : its IC50 reads 1000 to 10000 nM

---

Target: NRAS G12C (Homo sapiens, UniProt P01111+P62937, G12C)
Sequence (P01111 whole entry G12C): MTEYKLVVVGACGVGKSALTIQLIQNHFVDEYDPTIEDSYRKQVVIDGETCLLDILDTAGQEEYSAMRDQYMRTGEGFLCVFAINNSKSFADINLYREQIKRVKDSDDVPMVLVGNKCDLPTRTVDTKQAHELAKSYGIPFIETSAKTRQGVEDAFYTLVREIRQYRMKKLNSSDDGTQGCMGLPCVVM
Sequence (P62937 whole entry): as the sequence (P62937 whole entry) above
Experiment: Disruption of BRAF RBD interaction with Ras (FRET / MOA assay, with Cyclophilin A)
Type: biochemical
Conditions: NRAS G12C; read-out: NRAS G12C FRET data IC50
pIC50: −log10 of the molar value.
REPORTED ENDPOINT: pIC50

// below: answered compounds
{"COMPOUND": "CCn1c(-c2cccnc2[C@H](C)OC)c2c3cc(ccc31)-c1csc(n1)C[C@H](NC(=O)[C@H](C(C)C)N(C)C(=O)N(C)C[C@@H]1CCCN1C)C(=O)N1CCC[C@H](N1)C(=O)OCC(C)(C)C2", "pIC50": "6.00 to 7.00"}
{"COMPOUND": "CCn1c(-c2cccnc2[C@H](C)OC)c2c3cc(ccc31)-c1csc(n1)C[C@H](NC(=O)[C@H](C(C)C)N(C)C(=O)N1CCC(C(=O)C(F)(F)F)CC1)C(=O)N1CCC[C@H](N1)C(=O)OCC(C)(C)C2", "pIC50": "7.00 to 8.00"}
{"COMPOUND": "CCn1c(-c2cccnc2[C@H](C)OC)c2c3cc(ccc31)-c1cccc(c1)C[C@H](NC(=O)[C@H](C(C)C)N(C)C(=O)[C@H]1CCN(C(C)=O)C1)C(=O)N1CCC[C@H](N1)C(=O)OCC(C)(C)C2", "pIC50": "5.00 to 6.00"}
{"COMPOUND": "C=CC(=O)N(C)[C@H]1CN(C(=O)N(C)[C@H](C(=O)N[C@H]2Cc3nc(cs3)-c3ccc4c(c3)c(c(-c3cccnc3[C@H](C)OC)n4CC)CC(C)(C)COC(=O)C3CCCN(N3)C2=O)C(C)C)C[C@@H]1F (some centres unmarked)", "pIC50": "7.00 to 8.00"}
{"COMPOUND": "CCn1c(-c2cccnc2[C@H](C)OC)c2c3cc(ccc31)N1CCO[C@@](C)(CC(NC(=O)[C@H](C(C)C)N(C)C(=O)C3(F)CCN(C(=O)C#CC(C)(C)N(C)C)CC3)C(=O)N3CCC[C@H](N3)C(=O)OCC(C)(C)C2)C1 (some centres unmarked)", "pIC50": "> 8.00"}
{"COMPOUND": "CCn1c(-c2cccnc2[C@H](C)OC)c2c3cc(ccc31)-c1csc(n1)C[C@H](NC(=O)[C@H](C(C)C)N(C)C(=O)N1CC3(CC(N(C)C)C3)C1)C(=O)N1CCC[C@H](N1)C(=O)OCC(C)(C)C2 (atropisomer, axis not shown)", "pIC50": "7.00 to 8.00"}

Noted for CCn1c(-c2cccnc2[C@H](C)OC)c2c3cc(ccc31)-c1csc(n1)C[C@H](NC(=O)[C@H](C(C)C)N(C)C(=O)N1CC(C(C)(C)OC)C1)C(=O)N1CCC[C@H](N1)C(=O)OCC(C)(C)C2 (atropisomer, axis not shown) : its pIC50 reads 7.00 to 8.00

Noted for CCn1c(-c2cccnc2[C@H](C)OC)c2c3cc(ccc31)-c1cc(O)cc(c1)C[C@H](NS(=O)(=O)CC1CCC3(CNC3)C1)C(=O)N1CCC[C@H](N1)C(=O)OCC(C)(C)C2 (mixture of isomers) : its pIC50 reads < 5.00
